Biological target: Ferritin light chain (Equus caballus)
Test: Confirmation Assay for Identification of Novel General Anesthetics; further: potency means the concentration at half of the fitted maximal effect; nearly all actives have a fitted effect of over 40% in size
Conditions: apoferritin 1-aminoanthracene fluorescence displacement
Inconclusive results are not listed. Active and inactive are the calls of the source. The call rests on the fitted dose curve; in most records, active means well fitted inhibition curve with a large enough effect; inconclusive means small, poorly fitted or top-dose-only effect; inactive means flat fitted curve, though single readings scatter.
Provide the recorded Potency for the entries that follow.

Past entries and their recorded results:
COMPOUND | TARGET | OBSERVED PROPERTY | VAL
O=C(CC12CC3CC(CC(C3)C1)C2)Nc1nncs1 | Ferritin light chain (Equus caballus) | Potency | 10 µM (active)
c1cc2cn[nH]c2cc1NC1CCCCCC1 | Ferritin light chain (Equus caballus) | Potency | 15.8 µM (active)
O=C(O)Cc1csc(Nc2cccc(Cl)c2)n1 | Ferritin light chain (Equus caballus) | Potency | 12.6 µM (active)

Could I get Potency for every one of these entries?
1. O=c1[nH]cnc2sc3c(c12)CCCCC3
2. Cc1cc(C)cc(C(=O)N2CCCCCC2)c1

Output:
1. 15.8 µM (active)
2. 20 µM (active)

Could I get Potency for every one of these entries?
1. Cc1ccc(OCc2cc(C(=O)NC3CCc4ccccc43)no2)cn1 (stereo not drawn)
2. O=C1CCCc2ccccc2N1Cc1ccccc1Cl
3. Cc1ccccc1Nc1nc2ccccc2s1
4. CC1CCCC(C)N1C(=O)CSc1nnnn1Cc1ccccc1 (stereo not drawn)
5. COc1ccc(C2=Nn3c(nnc3-c3ccc(OC)cc3)SC2)cc1
6. Fc1ccc(CNc2ccc(CNc3ncn[nH]3)cc2)cc1

Output:
["17.8 µM (active)", "15.8 µM (active)", "14.1 µM (active)", "8.91 µM (active)", "22.4 µM (active)", "17.8 µM (active)"]

###

Molecular target: Ferritin light chain (Equus caballus) (UniProt P02791)
Sequence (P02791 2-175 limits assumed): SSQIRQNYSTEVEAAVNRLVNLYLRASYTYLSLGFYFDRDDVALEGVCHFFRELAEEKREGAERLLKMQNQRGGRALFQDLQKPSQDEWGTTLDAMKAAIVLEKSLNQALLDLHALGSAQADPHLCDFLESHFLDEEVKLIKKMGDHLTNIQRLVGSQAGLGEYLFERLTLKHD
Test: Confirmation Assay for Identification of Novel General Anesthetics; further: potency means the concentration at half of the fitted maximal effect; nearly all actives have a fitted effect of over 40% in size
Details: apoferritin 1-aminoanthracene fluorescence displacement
Records with an inconclusive call do not appear. Active and inactive are the calls of the source. Calls come from the whole dose curve; as a rule, active = well fitted inhibition curve with a large enough effect; inconclusive = small, poorly fitted or top-dose-only effect; inactive = flat fitted curve, though single readings scatter.
Provide the recorded Potency for the entries that follow.

Past entries and their recorded results:
COMPOUND | TARGET | Potency
O=C(COC(=O)CCc1ccccc1)NC12CC3CC(CC(C3)C1)C2 | Ferritin light chain (Equus caballus) (UniProt P02791) | 8.91 µM (active)
COc1ccc(/C=N/NC(=O)CC(=O)NC2CCCCC2)cc1 | Ferritin light chain (Equus caballus) (UniProt P02791) | 6.31 µM (active)
Cc1ccc(-c2ccc(=O)n(CC(=O)NCCc3ccccc3)n2)cc1 | Ferritin light chain (Equus caballus) (UniProt P02791) | 6.31 µM (active)
CCCNC(=O)c1csc2c1CCCCC2 | Ferritin light chain (Equus caballus) (UniProt P02791) | 28.2 µM (active)
Cc1sc2ncn(CC(=O)NCc3ccco3)c(=O)c2c1-c1ccccc1 | Ferritin light chain (Equus caballus) (UniProt P02791) | 28.2 µM (active)
O=C(COC(=O)CC1CC2CCC1C2)NC(=O)NCc1ccco1 (stereo unspecified) | Ferritin light chain (Equus caballus) (UniProt P02791) | 22.4 µM (active)

Could I get Potency for every one of these entries?
1. Cc1ccc(NCc2ccccc2)cc1
2. O=C(COC(=O)C1=COCCO1)NC1CCCCCCC1
3. Cc1ccc(O)c(N=Nc2ccccc2)n1
4. CC(NC(=O)COC(=O)C1=COCCO1)C12CC3CC(CC(C3)C1)C2 (stereo unspecified)
5. O=C(CN1N=C(c2ccc(Cl)cc2)CCC1=O)NCc1ccc(F)cc1

Output:
10 µM (active)
12.6 µM (active)
22.4 µM (active)
14.1 µM (active)
5.82 µM (active)

Could I get Potency for every one of these entries?
1. Cc1ccc(OCC(=O)N2CCCCCCC2)cc1C
2. O=C1CCCCCCC1Sc1ccccc1[N+](=O)[O-] (stereo unspecified)
3. CC(C)CCSc1nc2ccccc2[nH]1
4. Cc1cc(S(=O)(=O)NCCc2ccccc2)c(C)s1
5. O=C(COc1ccccc1)N1CCCCCCC1

Output:
35.5 µM (active)
7.94 µM (active)
15.8 µM (active)
15.8 µM (active)
12.6 µM (active)

Could I get Potency for every one of these entries?
1. O=C(CN1CCCC1)Nc1ccc(OCc2ccccc2)cc1
2. O=C(NC1CCCCCC1)C(=S)NCc1ccccc1

Output:
15.8 µM (active)
11.2 µM (active)

Could I get Potency for every one of these entries?
1. COc1ccc(CNC(=O)CN2N=C(c3ccc(Cl)cc3)CCC2=O)cc1
2. COc1ccccc1-c1cn(C(C)(C)C)nc1C
3. COc1ccccc1CC(=O)N1CCCc2ccccc21
4. NC(=O)COC(=O)CC12CC3CC(CC(Br)(C3)C1)C2
5. COC(=O)c1ccc(/C=N/NC(=O)CC(=O)NC2CCCCC2)cc1

Output:
1. 20.7 µM (active)
2. 14.1 µM (active)
3. 31.6 µM (active)
4. 17.8 µM (active)
5. 7.08 µM (active)

###

Provide the recorded Potency for the entries that follow.
Target: Ferritin light chain (Equus caballus)
Experiment: Confirmation Assay for Identification of Novel General Anesthetics; further: potency means the concentration at half of the fitted maximal effect; nearly all actives have a fitted effect of over 40% in size
Details: apoferritin 1-aminoanthracene fluorescence displacement
Records with an inconclusive call do not appear. Calls of active or inactive are those of the source. Calls follow the shape of the dose curve; as a rule, active = well fitted inhibition curve with a large enough effect; inconclusive = small, poorly fitted or top-dose-only effect; inactive = flat fitted curve, though single readings scatter.

Past entries and their recorded results:
COMPOUND | Potency
CCCCOC(=O)Nc1ccc(C)c(Cl)c1 | 17.8 µM (active)
Cc1cc(OC(C)C)c2c(-c3ccccc3)cc(=O)oc2c1 | 35.5 µM (active)
CC1(C)CC(=O)N(Cc2ccccc2)C(=O)C1 | 8.91 µM (active)
ClC1(Cl)CC1CSc1nc2ccccc2[nH]1 (stereo not drawn) | 15.8 µM (active)
O=c1c2c3c(sc2ncn1-n1cccc1)CCCCC3 | 10 µM (active)
O=c1cc(C23CC4CC(CC(C4)C2)C3)[nH][nH]1 | 12.6 µM (active)
CCNc1nc(C23CC4CC(CC(C4)C2)C3)cs1 | 7.94 µM (active)
CCCn1nnc(NC(=O)COc2ccc(C3CCCCC3)cc2)n1 | 12.6 µM (active)
Cc1ccc(C(=O)N2CCCc3ccccc32)c(F)c1F | 22.4 µM (active)
Cc1cccc(NC(=O)N2CCCCCC2)c1 | 11.2 µM (active)

Could I get Potency for every one of these entries?
1. O=C(Nc1ccc(Cl)c(Cl)c1)OCc1cncs1
2. CCN1C(=O)N(c2ccc(Cl)cc2)C(C)=CC1(C)C
3. Nc1nnc(CCC2CCCCC2)s1
4. O=S(=O)(NCCc1ccccc1)c1ccc(Br)s1
5. O=C(c1csc2ccccc12)N1CCCCCC1
6. Cc1cc(NS(=O)(=O)N(C)C)ccc1C(C)C

Output:
1. 28.2 µM (active)
2. 35.5 µM (active)
3. 10 µM (active)
4. 31.6 µM (active)
5. 31.6 µM (active)
6. 20 µM (active)

Could I get Potency for every one of these entries?
1. Cc1ccc(NCc2ccccc2O)cc1
2. CC(NC(=O)COC(=O)Cc1ccsc1)C1CC2CCC1C2 (stereo not drawn)
3. CC1CCCCC1NC(=O)Cn1nc(-c2ccccc2)ccc1=O (stereo not drawn)
4. Nc1cc(Cl)ccc1Oc1ccc2ccccc2c1
5. CC1CCCC(NC(=O)COC(=O)c2ccc(N(C)C)cc2)C1C (stereo not drawn)
6. ON1C(c2ccc(Cl)cc2Cl)N(O)[C@H]2CCCC[C@H]21 (stereo partly drawn)
7. Cc1ccc(NCc2ccccc2O)c(C)c1

Output:
1: 14.1 µM (active); 2: 31.6 µM (active); 3: 7.08 µM (active); 4: 15.8 µM (active); 5: 7.08 µM (active); 6: 7.94 µM (active); 7: 12.6 µM (active)

Could I get Potency for every one of these entries?
1. O=C(Cn1nc(-c2ccc(Cl)cc2)ccc1=O)NCC1CCCO1 (stereo not drawn)
2. O=C1NC2(CCCCCC2)Oc2ccccc21
3. Cc1cccc(NC(=O)N2CCCCCC2)c1C
4. CC(=O)Nc1ccc(C(=O)OCC(=O)NC2CCCCCCC2)cc1

Output:
14.1 µM (active)
20 µM (active)
8.91 µM (active)
15.8 µM (active)

###

Provide the recorded Potency for the entries that follow.
Biological target: Ferritin light chain (Equus caballus) (UniProt P02791)
Test: Confirmation Assay for Identification of Novel General Anesthetics; further: potency means the concentration at half of the fitted maximal effect; nearly all actives have a fitted effect of over 40% in size
Conditions: apoferritin 1-aminoanthracene fluorescence displacement
Inconclusive results are not listed. Activity calls are given as the source filed them. Calls follow the shape of the dose curve; as a rule, active = well fitted inhibition curve with a large enough effect; inconclusive = small, poorly fitted or top-dose-only effect; inactive = flat fitted curve, though single readings scatter.

Past entries and their recorded results:
COMPOUND | VAL
O=C(COC(=O)CC1CC2CCC1C2)Nc1ccc(F)cc1 (configuration not stated) | 20 µM (active)
COc1ccccc1OCC(=O)N1CCCCCCC1 | 12.6 µM (active)

Could I get Potency for every one of these entries?
1. O=C(Nc1nccs1)c1csc2c1CCCC2
2. CCCC(C)NS(=O)(=O)c1ccc(OC)c(C)c1 (configuration not stated)
3. O=C(CCl)Nc1ccc(N2CCCCCC2)cc1
4. O=S(N1CCc2ccccc21)C12CC3CC(CC(C3)C1)C2 (configuration not stated)
5. CCN1C(=O)N(c2cccc3ccccc23)C(C)=CC1(C)C
6. Cc1ccc(CNC(=O)c2nnn(-c3cccc(C)c3)c2N)cc1
7. Nc1nnc(COc2cccc(C(F)(F)F)c2)s1

Output:
["8.91 µM (active)", "20 µM (active)", "15.8 µM (active)", "12.6 µM (active)", "14.1 µM (active)", "17.8 µM (active)", "15.8 µM (active)"]

Could I get Potency for every one of these entries?
1. Fc1ccccc1SCc1nnc(-c2ccccc2Br)o1
2. O=C(CSCCO)Nc1ccc(C2CCCCC2)cc1
3. CC1(C)CC(=O)c2c(noc2-c2ccccc2)C1
4. O=C(Nc1cccc(F)c1)N1CCCCCC1
5. O=C(CSc1nnnn1C1CCCCC1)Nc1nc2c(s1)CCCC2
6. O=C(Nc1ccc(F)c(Cl)c1)N1CCCCCC1

Output:
1: 15.8 µM (active); 2: 20 µM (active); 3: 17.8 µM (active); 4: 12.6 µM (active); 5: 31.6 µM (active); 6: 7.94 µM (active)

Could I get Potency for every one of these entries?
1. COc1ccccc1CC(=O)Nc1cc(Cl)ccc1O
2. Clc1ccc(CNc2ccccn2)cc1
3. c1cnc(NC2CCCCCC2)nc1
4. CC(Nc1ccccc1)c1cccnc1 (configuration not stated)
5. CC1CCCCC1NC(=O)COC(=O)COc1ccccc1Cl (configuration not stated)
6. N#CC(Nc1ccccc1)c1ccccc1OCc1ccccc1 (configuration not stated)
7. COc1cc(CNCCO)ccc1OCCc1ccccc1
8. Cc1c(Br)cc(C(=O)N2CCCCCC2)c(C)c1C

Output:
17.8 µM (active)
15.8 µM (active)
15.8 µM (active)
15.8 µM (active)
17.8 µM (active)
35.5 µM (active)
15.8 µM (active)
17.8 µM (active)

Could I get Potency for every one of these entries?
1. O=C(OCC(=O)C12CC3CC(CC(C3)C1)C2)c1ccccn1
2. O=C(CCc1ccccc1)NC(=S)Nc1ccccc1[N+](=O)[O-]
3. CCc1ccc(NC(=S)N2CCCCCCC2)cc1
4. CN(C)CC(=O)Nc1ccc(Oc2ccc(Cl)cc2)cc1

Output:
1. 14.1 µM (active)
2. 15.8 µM (active)
3. 14.1 µM (active)
4. 28.2 µM (active)

Just for reference, PubChem BioAssay AID489008 is where these values come from.
